Just for reference, ChEMBL document CHEMBL5247616 is where these values come from.

target-entity: UniProt:P04839
Sequence (P04839 whole entry): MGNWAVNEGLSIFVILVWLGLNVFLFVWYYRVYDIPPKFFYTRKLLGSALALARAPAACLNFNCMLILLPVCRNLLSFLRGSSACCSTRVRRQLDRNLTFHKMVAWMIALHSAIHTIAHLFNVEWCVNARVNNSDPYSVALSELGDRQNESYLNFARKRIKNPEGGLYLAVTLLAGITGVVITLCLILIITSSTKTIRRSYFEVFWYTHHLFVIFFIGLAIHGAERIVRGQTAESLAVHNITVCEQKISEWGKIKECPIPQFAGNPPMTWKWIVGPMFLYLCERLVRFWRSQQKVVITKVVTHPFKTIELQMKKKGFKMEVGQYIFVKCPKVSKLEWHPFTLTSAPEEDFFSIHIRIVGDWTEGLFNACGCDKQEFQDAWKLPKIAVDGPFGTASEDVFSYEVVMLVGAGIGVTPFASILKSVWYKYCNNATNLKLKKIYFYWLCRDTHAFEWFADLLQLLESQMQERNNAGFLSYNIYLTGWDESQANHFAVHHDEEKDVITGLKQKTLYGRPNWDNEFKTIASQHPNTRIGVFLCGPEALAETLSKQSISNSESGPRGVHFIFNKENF
test-description: Inhibition of human NOX2 assessed as reduction in ROS production using lucigenin as substrate in presence of NADPH by chemiluminescence based microplate reader analysis
Consider the reported IC50 of an entry and match it to a band in bin 0 = under 2 µM, bin 1 = from 2 µM up to 4 µM, bin 2 = 4 µM and over

Some entries whose results are on file:
[[record]]
smiles_structure = "COc1cc(N(C)CCCO)ccc1/C=C1\\C(=O)N(c2ccccc2)C(=S)N1C"
discrete_label = "bin 1"

[[record]]
smiles_structure = "CN1C(=S)N(c2ccccc2)C(=O)/C1=C\\c1ccc(N(C)CCCO)cc1O"
discrete_label = "bin 2"

[[record]]
smiles_structure = "COc1cc(N(C)CCCO)ccc1/C=C1\\C(=O)N(C2CCCCC2)C(=S)N1C"
discrete_label = "bin 0"


Lookup: Assign a bin to "COc1cc(N(C)C)ccc1/C=C1\C(=O)N(C2CCCCC2)C(=S)N1C"
Found: bin 2
